protocol.description: Tissue distribution of syringic acid in liver and kidney
Format: in vivo, Sprague Dawley rats
condition.context: Sprague Dawley, rat, ip, 25 mg kg^−1; liver; intraperitoneal; read-out: Cmax
quantity.measured: Cmax
The answer should read as a number with its unit following.

Form field Cmax, entry COc1cc(C(=O)O)cc(OC)c1O [Syringic Acid, 3,5-Dimethoxy-4-hydroxybenzoic acid] : 40100 ng/g

* * *

protocol.description: Tissue distribution of syringic acid in liver and kidney
Format: in vivo, Sprague Dawley rats
condition.context: Sprague Dawley, rat, kidney, ip, 25 mg kg^−1
quantity.measured: Tmax (min)
Numbers only, in min.

Form: compound = COc1cc(C(=O)O)cc(OC)c1O [Syringic Acid, 3,5-Dimethoxy-4-hydroxybenzoic acid] ; Tmax = 24.1
